Target: Calcineurin PP2B (Rattus norvegicus)
Assay: Inhibition of PP2B
pIC50: −log10 of the molar value.

STRUCTURE	pIC50
CC1(C)N=C(N)N=C(N)N1c1ccc(CCCCc2ccccc2)cc1	4.30

====

Target: UniProt P20650
Sequence (P20650 whole entry, looked up): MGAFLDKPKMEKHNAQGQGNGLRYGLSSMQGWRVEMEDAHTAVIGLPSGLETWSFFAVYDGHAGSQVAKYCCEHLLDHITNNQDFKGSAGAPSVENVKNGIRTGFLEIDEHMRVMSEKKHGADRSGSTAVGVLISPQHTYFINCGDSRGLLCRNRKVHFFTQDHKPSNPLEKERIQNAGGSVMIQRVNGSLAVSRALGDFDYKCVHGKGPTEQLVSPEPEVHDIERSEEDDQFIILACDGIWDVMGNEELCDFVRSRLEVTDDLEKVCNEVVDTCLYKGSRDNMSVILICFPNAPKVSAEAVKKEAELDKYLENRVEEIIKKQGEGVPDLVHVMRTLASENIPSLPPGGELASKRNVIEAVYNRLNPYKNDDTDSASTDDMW
Experiment: Inhibition of PP2C alpha at 100 uM

COMPOUND	inhibition
Ic1ccc2c(c1)N(c1ccccc1)c1cc(Nc3ccc4nc5ccc(I)cc5[n+](-c5ccccc5)c4c3)ccc1N2	> 50%
C/N=C(N)/N=C(\N)Nc1cc2ccccc2c2ccccc12	> 50%
Cc1cc(N)c2cc(NC(=O)Nc3ccc4nc(C)cc(N)c4c3)ccc2n1	> 30%
CC(C)CC(N)C(=O)Nc1ccc2ccccc2c1 (centres undefined)	> 30%
